target: Carnitine O-acetyltransferase (Columba livia); assay: Tested against pigeon breast carnitine acyltransferase
experimental-readout: pKi
The read-out pKi is expressed as -log10 of concentration in moles per litre.

compound	pKi
CC(=O)NC(CC(=O)O)CC(C)(C)C (configuration not stated)	1.60

Here's the next entry for you.
Q) Please provide the recorded pKi for CC(=O)NC(CC(=O)[O-])C[N+](C)(C)C (configuration not stated) , tested on Carnitine O-acetyltransferase (Columba livia).
A) 4.62
